Test: Terminal half life in CD1 mouse at 20 mg/kg, iv administered as bolus dose
Format: ADME, organism-based
Design: dose 20 mg/kg, route intravenous
Conditions: in vivo, read-out: beta t1/2
readout.name: half-life (h)
Give bare numbers, in h.

Exercise: Need half-life of O=S(=O)(Nc1ccccc1)c1ccc(NC(=S)Nc2ccccc2)cc1 , thanks.
Solution: 5.65

* * *

Experiment: Clearance in CD1 mouse at 20 mg/kg, iv administered as bolus dose
Type: ADME, organism-based
Parameters: dose 20 mg/kg, route intravenous
Conditions: in vivo
readout.name: clearance (mL/min)
Numbers only, in mL/min.

Exercise: Report clearance for O=S(=O)(Nc1ccccc1)c1ccc(NC(=S)Nc2ccccc2)cc1 please.
Solution: 1.48

* * *

Assay: Cmax in CD1 mouse at 20 mg/kg, po
Format: ADME, organism-based
Design: dose 20 mg/kg, route oral
Conditions: in vivo
readout.name: Cmax (ng/mL)
Answers are plain numbers, in ng/mL.

Exercise: Requested read-out: Cmax. Entry: O=S(=O)(Nc1ccccc1)c1ccc(NC(=S)Nc2ccccc2)cc1
Solution: 2700

Sourced from ChEMBL document CHEMBL1152867
